- procedure-details: In vitro stability in rat plasma
- Assay type: in vitro ADME
- experimental-parameters: rat, rat plasma
Where a SMILES comes first, the peptide text is derived from it. [ ]: non-standard residue; d: D form. Nle = CCCC[C@H](N)C(=O)O
outcome-measure: remaining at 24 h, 10 mg/mL
Write the numeric value and follow it with the unit.

Please review the entries below; each comes with its answer.
- CC[C@H](C)[C@H](NC(=O)[C@H](CCCNC(=N)N)NC(=O)[C@H](CC(C)C)NC(=O)[C@H](N)Cc1ccccc1)C(=O)N[C@@H](CCCNC(=N)N)C(=O)N1CCC[C@H]1C(=O)N[C@@H](CCCCN)C(=O)O: 44%
- CC[C@H](C)[C@H](NC(=O)[C@H](CCCNC(=N)N)NC(=O)[C@@H](CC(C)C)NC(=O)[C@@H](N)Cc1ccccc1)C(=O)N[C@@H](CCCNC(=N)N)C(=O)N1CCC[C@H]1C(=O)N[C@@H](CCCCN)C(=O)O: 99%
- CC[C@@H](C)[C@@H](NC(=O)[C@H](CCCNC(=N)N)NC(=O)[C@H](CC(C)C)NC(=O)[C@@H](N)Cc1ccccc1)C(=O)N[C@@H](CCCNC(=N)N)C(=O)N1CCC[C@H]1C(=O)N[C@@H](CCCCN)C(=O)O: 0%
- CC[C@H](C)[C@H](NC(=O)[C@H](CCCNC(=N)N)NC(=O)[C@H](CC(C)C)NC(=O)[C@@H](N)Cc1ccccc1)C(=O)N[C@@H](CCCNC(=N)N)C(=O)N1CCC[C@H]1C(=O)N[C@@H](CCCCN)C(=O)O: 0%
- CC[C@H](C)[C@H](NC(=O)[C@H](CCCNC(=N)N)NC(=O)[C@H](CC(C)C)NC(=O)[C@H](Cc1ccccc1)NC)C(=O)N[C@@H](CCCNC(=N)N)C(=O)N1CCC[C@H]1C(=O)N[C@@H](CCCCN)C(=O)O: 31%

Item: CCCC[C@H](NC(=O)[C@H](Cc1ccccc1)NC(C)=O)C(=O)N[C@@H](CCCNC(=N)N)C(=O)N[C@@H](CCCC)C(=O)N[C@@H](CCCNC(=N)N)C(=O)N1CCC[C@H]1C(=O)N[C@@H](CCCNC(=N)N)C(=O)O [compound 5, Ac-Phe-Nle-Arg-Nle-Arg-Pro-Arg-OH] (Ac-F[Nle]R[Nle]RPR-OH) | remaining at 24 h, 10 mg/mL: 0%
